- assay.system: T1, Insulin receptor prepared according to Bass et al., 1996: soluble human insulin receptor-immunoglobulin heavy … (human, UniProt P06213 28-956)
- T1 construct: extracellular domain; Eu3+-labelled in TR-FRET; also called IR; sIR-Fc; not shown: immunoglobulin heavy chain constant domains that replace the transmembrane and i
- test.protocol: phage ELISA, vs IGF-1R
observation.type: IR/IGF-1R Comparison

> print(dat)
                                     binder   measured
1  YRGMLVLGRSSDGAGKVAFERPARIGQTVFAVNFYDWFV [A6L-0-E6-IR]  0.1 ratio
2   GVRAMSFYDALVSVLGLGPSG [20E2B-1-A6-IGFR]  0.1 ratio
3    LRIANLFYQRLWDLAFGGGG [20E22-3-E8-IGFR]  0.1 ratio
4  VNQSGSIHENFYDWFERQVSHQRGVR [H2CA-4-F1O-IGFR]  0.2 ratio
5   VGTVAGFYDAIAQLVARASRV [20E2A-3-C7-IGFR]  0.2 ratio
